The measurements presented in this section are drawn from BindingDB's records for patent US10626103.

# test_system: Lysine-specific histone demethylase 1A (Homo sapiens, UniProt O60341)
endpoint_name: IC50

Query string: Record request: IC50 value, item COc1ccc(-c2c(-c3ccc(C#N)c(F)c3)cc(C(=O)N3CCC[C@@H](N)C3)n2CCCC(=O)O)cc1 [US10626103, Example 41]
Result string: < 100 nM
